Just for reference, patent US20170081331A1 is where these values come from.

So I've got IC50 readings for influenza A virus (IAV) PA-Nter fragment (amino acids 1-209) (Influenza A virus), take a look.
Lab book: enter the figure in µM, no units written.

{"Compound": "CC(C)N1CC(C)n2c(c(O)c(=O)n2Cc2ccccc2)C1=O (stereo not shown)", "Target Or Test System": "influenza A virus (IAV) PA-Nter fragment (amino acids 1-209) (Influenza A virus)", "Measure Name": "IC50", "Unit": "µM", "Observed Value": 2.63}
{"Compound": "CC(C)N1CCn2[nH]c(=O)c(O)c2C1=O", "Target Or Test System": "influenza A virus (IAV) PA-Nter fragment (amino acids 1-209) (Influenza A virus)", "Measure Name": "IC50", "Unit": "µM", "Observed Value": 1.31}
{"Compound": "CC(C)N1CCn2c(c(O)c(=O)n2Cc2ccccc2)C1=O", "Target Or Test System": "influenza A virus (IAV) PA-Nter fragment (amino acids 1-209) (Influenza A virus)", "Measure Name": "IC50", "Unit": "µM", "Observed Value": 12.4}

Asked: Can you look up IC50 on influenza A virus (IAV) PA-Nter fragment (amino acids 1-209) (Influenza A virus) for CC(C)N1CCn2c(c(O)c(=O)n2CCc2ccccc2)C1=O ?
Given back: 7.54
